Hey, just so you know, these numbers are from ChEMBL document CHEMBL1765029.

# Test system: MCF7
# test.name: Cytotoxicity against human MCF7 cells by sulforhodamine B method
# Type: functional
Counter-ions that a name gives are not always drawn.

compound | readout.qualifier | GI50 / nM
COc1cc2c(cc1OCCCCCOc1ccc3c(c1)CC[C@@H]1[C@@H]3CC[C@]3(C)[C@@H](O)CC[C@@H]13)N=C[C@@H]1CC(F)(F)CN1C2=O | = | 170
COc1cc2c(cc1OCCCCCOc1ccc3c(c1)CC[C@@H]1[C@@H]3CC[C@]3(C)[C@@H](O)CC[C@@H]13)N=C[C@@H]1C[C@@H](F)CN1C2=O | = | 150
COc1cc2c(cc1OCCCN1CCN(CCCOc3ccc4c(c3)CC[C@@H]3[C@@H]4CC[C@]4(C)[C@@H](O)CC[C@@H]34)CC1)N=C[C@@H]1CC(F)(F)CN1C2=O | < | 100
COc1cc2c(cc1OCCCCCN1CCN(CCCCCOc3ccc4c(c3)CC[C@@H]3[C@@H]4CC[C@]4(C)[C@@H](O)CC[C@@H]34)CC1)N=C[C@@H]1CCCN1C2=O | = | 140
COc1cccc2c1C(=O)c1c(O)c3c(c(O)c1C2=O)C[C@@](O)(C(=O)CO)C[C@@H]3O[C@H]1C[C@H](N)[C@H](O)[C@H](C)O1 [DOXORUBICIN HYDROCHLORIDE] | = | 170
COc1cc2c(cc1OCCCCCN1CCN(CCCCCOc3ccc4c(c3)CC[C@@H]3[C@@H]4CC[C@]4(C)[C@@H](O)CC[C@@H]34)CC1)N=C[C@@H]1C[C@@H](F)CN1C2=O | = | 130
COc1cc2c(cc1OCCCOc1ccc3c(c1)CC[C@@H]1[C@@H]3CC[C@]3(C)[C@@H](O)CC[C@@H]13)N=C[C@@H]1C[C@@H](F)CN1C2=O | = | 140
COc1cc2c(cc1OCCCN1CCN(CCCOc3ccc4c(c3)CC[C@@H]3[C@@H]4CC[C@]4(C)[C@@H](O)CC[C@@H]34)CC1)N=C[C@@H]1C[C@@H](F)CN1C2=O | < | 100
COc1cc2c(cc1OCCCOc1ccc3c(c1)CC[C@@H]1[C@@H]3CC[C@]3(C)[C@@H](O)CC[C@@H]13)N=C[C@@H]1CC(F)(F)CN1C2=O | = | 170
COc1cc2c(cc1OCCCCCN1CCN(CCCCCOc3ccc4c(c3)CC[C@@H]3[C@@H]4CC[C@]4(C)[C@@H](O)CC[C@@H]34)CC1)N=C[C@@H]1CC(F)(F)CN1C2=O | = | 140
COc1cc2c(cc1OCc1cn(CCCOc3ccc4c(c3)CC[C@@H]3[C@@H]4CC[C@]4(C)[C@@H](O)CC[C@@H]34)nn1)N=C[C@@H]1CC(F)(F)CN1C2=O | = | 110
COc1cc2c(cc1OCCCCCOc1ccc3c(c1)CC[C@@H]1[C@@H]3CC[C@]3(C)[C@@H](O)CC[C@@H]13)N=C[C@@H]1CCCN1C2=O | = | 170
COc1cc2c(cc1OCc1cn(CCCCCOc3ccc4c(c3)CC[C@@H]3[C@@H]4CC[C@]4(C)[C@@H](O)CC[C@@H]34)nn1)N=C[C@@H]1C[C@@H](F)CN1C2=O | < | 100
COc1cc2c(cc1O)N=C[C@@H]1CCCN1C2=O | = | 170
COc1cc2c(cc1OCc1cn(CCCCCOc3ccc4c(c3)CC[C@@H]3[C@@H]4CC[C@]4(C)[C@@H](O)CC[C@@H]34)nn1)N=C[C@@H]1CC(F)(F)CN1C2=O | = | 110
